- System: 521955-158-R2-J5-PDC complex spheroid growth, % test/control;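 also: spheroids exposed to agents for 7 days before readout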
- test summary: Anticancer human tumor 521955-158-R2-J5-PDC patient-derived pancreatic carcinoma cell line growth inhibition [Asc]
- condition parameters: second compound 1 µM; first compound 0.316 µM; active compounds read low
# label = condition met if viability, T/C < 60% else condition not met

stdin: Determine whether this compound shows viability, T/C lower than 60% (ties excluded): COc1c(OCCCN2CCOCC2)ccc2c3n(c(=NC(=O)c4cnc(N)nc4)nc12)CCN3 + CNC(C)C(=O)NC1CN(S(=O)(=O)c2cccc(S(=O)(=O)N3CCC4CCC(C(=O)NC(c5ccccc5)c5ccccc5)N4C(=O)C(NC(=O)C(C)NC)C3)c2)CCC2CCC(C(=O)NC(c3ccccc3)c3ccccc3)N2C1=O
stdout: condition met

stdin: Determine whether this compound shows viability, T/C lower than 60% (ties excluded): CCN1CCN(Cc2ccc(Nc3ncc(F)c(-c4cc(F)c5nc(C)n(C(C)C)c5c4)n3)nc2)CC1 + Cc1c(S(C)(=O)=O)c(-c2cc(F)cc(N3CCN(c4ccc(NS(=O)(=O)c5ccc(NC(CCN6CCC(C(=O)OCCCP(=O)(O)O)CC6)CSc6ccccc6)c(S(=O)(=O)C(F)(F)F)c5)cc4)CC3)c2)c(-c2ccc(Cl)cc2)n1C(C)C
stdout: condition not met

stdin: Determine whether this compound shows viability, T/C lower than 60% (ties excluded): C#Cc1c(F)ccc2cc(O)cc(-c3ncc4c(N5CC6CCC(C5)N6)nc(OCC56CCCN5CC(F)C6)nc4c3F)c12 (centres undefined) + Cc1c(S(C)(=O)=O)c(-c2cc(F)cc(N3CCN(c4ccc(NS(=O)(=O)c5ccc(NC(CCN6CCC(C(=O)OCCCP(=O)(O)O)CC6)CSc6ccccc6)c(S(=O)(=O)C(F)(F)F)c5)cc4)CC3)c2)c(-c2ccc(Cl)cc2)n1C(C)C
stdout: condition met

stdin: Determine whether this compound shows viability, T/C lower than 60% (ties excluded): C=CC(=O)N1CCN(c2nc(=O)n(-c3c(C)ccnc3C(C)C)c3nc(-c4c(O)cccc4F)c(F)cc23)C(C)C1 (centres undefined) + CNC(C)C(=O)NC1CN(S(=O)(=O)c2cccc(S(=O)(=O)N3CCC4CCC(C(=O)NC(c5ccccc5)c5ccccc5)N4C(=O)C(NC(=O)C(C)NC)C3)c2)CCC2CCC(C(=O)NC(c3ccccc3)c3ccccc3)N2C1=O
stdout: condition not met

stdin: Determine whether this compound shows viability, T/C lower than 60% (ties excluded): O=C(c1ccc(F)c(F)c1Nc1ccc(I)cc1F)N1CC(O)([C@@H]2CCCCN2)C1 + CNC(C)C(=O)NC1CN(S(=O)(=O)c2cccc(S(=O)(=O)N3CCC4CCC(C(=O)NC(c5ccccc5)c5ccccc5)N4C(=O)C(NC(=O)C(C)NC)C3)c2)CCC2CCC(C(=O)NC(c3ccccc3)c3ccccc3)N2C1=O
stdout: condition met

stdin: Determine whether this compound shows viability, T/C lower than 60% (ties excluded): C=C(F)C(=O)N1CCN(c2nc(OCC3CCCN3C)nc3c2CCN(c2cccc4cccc(Cl)c24)C3)CC1CC#N (centres undefined) + Cc1c(S(C)(=O)=O)c(-c2cc(F)cc(N3CCN(c4ccc(NS(=O)(=O)c5ccc(NC(CCN6CCC(C(=O)OCCCP(=O)(O)O)CC6)CSc6ccccc6)c(S(=O)(=O)C(F)(F)F)c5)cc4)CC3)c2)c(-c2ccc(Cl)cc2)n1C(C)C
stdout: condition not met

stdin: Determine whether this compound shows viability, T/C lower than 60% (ties excluded): C=C(F)C(=O)N1CCN(c2nc(OCC3CCCN3C)nc3c2CCN(c2cccc4cccc(Cl)c24)C3)CC1CC#N (centres undefined) + CNC(C)C(=O)NC1CN(S(=O)(=O)c2cccc(S(=O)(=O)N3CCC4CCC(C(=O)NC(c5ccccc5)c5ccccc5)N4C(=O)C(NC(=O)C(C)NC)C3)c2)CCC2CCC(C(=O)NC(c3ccccc3)c3ccccc3)N2C1=O
stdout: condition not met

stdin: Determine whether this compound shows viability, T/C lower than 60% (ties excluded): C=CC(=O)N1CCN(c2nc(=O)n(-c3c(C)ccnc3C(C)C)c3nc(-c4c(O)cccc4F)c(F)cc23)C(C)C1 (centres undefined) + Cc1c(S(C)(=O)=O)c(-c2cc(F)cc(N3CCN(c4ccc(NS(=O)(=O)c5ccc(NC(CCN6CCC(C(=O)OCCCP(=O)(O)O)CC6)CSc6ccccc6)c(S(=O)(=O)C(F)(F)F)c5)cc4)CC3)c2)c(-c2ccc(Cl)cc2)n1C(C)C
stdout: condition not met

stdin: Determine whether this compound shows viability, T/C lower than 60% (ties excluded): O=C(c1cc(Cc2n[nH]c(=O)c3ccccc23)ccc1F)N1CCN(C(=O)C2CC2)CC1 + CNC(C)C(=O)NC1CN(S(=O)(=O)c2cccc(S(=O)(=O)N3CCC4CCC(C(=O)NC(c5ccccc5)c5ccccc5)N4C(=O)C(NC(=O)C(C)NC)C3)c2)CCC2CCC(C(=O)NC(c3ccccc3)c3ccccc3)N2C1=O
stdout: condition not met

stdin: Determine whether this compound shows viability, T/C lower than 60% (ties excluded): O=C(c1cc(Cc2n[nH]c(=O)c3ccccc23)ccc1F)N1CCN(C(=O)C2CC2)CC1 + Cc1c(S(C)(=O)=O)c(-c2cc(F)cc(N3CCN(c4ccc(NS(=O)(=O)c5ccc(NC(CCN6CCC(C(=O)OCCCP(=O)(O)O)CC6)CSc6ccccc6)c(S(=O)(=O)C(F)(F)F)c5)cc4)CC3)c2)c(-c2ccc(Cl)cc2)n1C(C)C
stdout: condition not met

stdin: Determine whether this compound shows viability, T/C lower than 60% (ties excluded): O=C(c1ccc(F)c(F)c1Nc1ccc(I)cc1F)N1CC(O)([C@@H]2CCCCN2)C1 + Cc1c(S(C)(=O)=O)c(-c2cc(F)cc(N3CCN(c4ccc(NS(=O)(=O)c5ccc(NC(CCN6CCC(C(=O)OCCCP(=O)(O)O)CC6)CSc6ccccc6)c(S(=O)(=O)C(F)(F)F)c5)cc4)CC3)c2)c(-c2ccc(Cl)cc2)n1C(C)C
stdout: condition met

stdin: Determine whether this compound shows viability, T/C lower than 60% (ties excluded): C#Cc1c(F)ccc2cc(O)cc(-c3ncc4c(N5CC6CCC(C5)N6)nc(OCC56CCCN5CC(F)C6)nc4c3F)c12 (centres undefined) + CNC(C)C(=O)NC1CN(S(=O)(=O)c2cccc(S(=O)(=O)N3CCC4CCC(C(=O)NC(c5ccccc5)c5ccccc5)N4C(=O)C(NC(=O)C(C)NC)C3)c2)CCC2CCC(C(=O)NC(c3ccccc3)c3ccccc3)N2C1=O
stdout: condition met

stdin: Determine whether this compound shows viability, T/C lower than 60% (ties excluded): COc1c(OCCCN2CCOCC2)ccc2c3n(c(=NC(=O)c4cnc(N)nc4)nc12)CCN3 + Cc1c(S(C)(=O)=O)c(-c2cc(F)cc(N3CCN(c4ccc(NS(=O)(=O)c5ccc(NC(CCN6CCC(C(=O)OCCCP(=O)(O)O)CC6)CSc6ccccc6)c(S(=O)(=O)C(F)(F)F)c5)cc4)CC3)c2)c(-c2ccc(Cl)cc2)n1C(C)C
stdout: condition met
